Exercise: for every item that follows, state its recorded EC50.
biological target: REV-ERBα LBD (human; residues 281-614 Δ324-422) (Homo sapiens, UniProt P20393, DEL324-422); construct: 6×Histag-REV-ERBα LBD (human; residues 281-614 Δ324-422); made in house; host or cells: Escherichia coli; assay: TR-FRET corepressor interaction assay (REV-ERBα LBD, FITC-SMRT peptide); assay type: biochemical; conditions: Table 2, read-out: REVERBα agonism (EC50 class, FRET assay)
Sequence (P20393 with tags, fused parts or gaps DEL324-422): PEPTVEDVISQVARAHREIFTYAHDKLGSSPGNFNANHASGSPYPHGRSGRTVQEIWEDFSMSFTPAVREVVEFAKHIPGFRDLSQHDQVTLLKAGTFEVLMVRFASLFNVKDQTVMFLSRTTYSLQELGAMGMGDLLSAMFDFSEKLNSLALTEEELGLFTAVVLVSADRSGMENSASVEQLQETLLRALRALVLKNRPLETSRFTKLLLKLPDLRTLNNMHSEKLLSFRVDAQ
Sequence (Q9Y618 2335-2356 partner limits assumed): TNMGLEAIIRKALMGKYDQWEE

Prompt: Output measured EC50 for this item: CC(C)Cn1cc(CCNS(=O)(=O)N(C)C)c2ccc(C(F)(F)F)cc21
Completion: < 500 nM

Prompt: Output measured EC50 for this item: Cc1cc(-c2ccncc2)cc2c1c(CCNS(=O)(=O)N(C)C)cn2CC(C)C
Completion: > 3000 nM

Prompt: Output measured EC50 for this item: CC(C)(C)Cc1cn(CCNS(=O)(=O)C2CC2)c2ccc(-c3cccc4ccncc34)cc12
Completion: 500 to 3000 nM

Prompt: Output measured EC50 for this item: CC(C)Cn1cc(CCNS(=O)(=O)N(C)C)c2ccc(-c3ccccc3CO)cc21
Completion: 500 to 3000 nM

Prompt: Output measured EC50 for this item: COc1ccc2cc(-c3ccc4c(c3)c(CC(C)(C)C)cn4CCNS(=O)(=O)C3CC3)ccc2c1
Completion: > 3000 nM

Prompt: Output measured EC50 for this item: COc1cccc(Cn2cc(CCNS(=O)(=O)N(C)C)c3ccc(-c4ccncc4)cc32)c1
Completion: 500 to 3000 nM

Prompt: Output measured EC50 for this item: CC(C)(C)Cn1cc([C@H](NS(=O)(=O)C2CC2)C(F)(F)F)c2ccc(-c3ccncc3C#N)cc21
Completion: < 500 nM

Prompt: Output measured EC50 for this item: CN(C)C(=O)n1cc(CCNS(=O)(=O)N(C)C)c2ccc(-c3ccncc3)cc21
Completion: > 3000 nM

Prompt: Output measured EC50 for this item: CC(C)Cn1cc(CCNS(C)(=O)=O)c2ccc(-c3ccncc3)cc21
Completion: 500 to 3000 nM

Prompt: Output measured EC50 for this item: CC(C)Cn1cc(CCNS(=O)(=O)N(C)C)c2ccc(OC(C)(C)C)cc21
Completion: 500 to 3000 nM

Prompt: Output measured EC50 for this item: CC(C)Cn1cc(CCNS(=O)(=O)C(C)C)c2cc(F)c(-c3ccncc3Cl)cc21
Completion: < 500 nM

Prompt: Output measured EC50 for this item: CC(C)Cn1cc(CCNS(=O)(=O)N(C)C)c2cc(-c3ccncc3)ccc21
Completion: > 3000 nM

Prompt: Output measured EC50 for this item: CC(C)(C)Cn1cc(CNS(=O)(=O)C2CC2)c2cc(F)c(-c3ccccc3C(F)(F)F)cc21
Completion: < 500 nM

Prompt: Output measured EC50 for this item: CC(C)Cn1cc(CCNS(=O)(=O)N(C)C)c2ccc(-c3ccccc3OCc3ccccc3)cc21
Completion: 500 to 3000 nM

Prompt: Output measured EC50 for this item: CC(C)Cn1cc(-c2ccc(CNS(=O)(=O)C(C)C)cc2)c2ccc(-c3ccccc3)cc21
Completion: 500 to 3000 nM

Prompt: Output measured EC50 for this item: CN(C)S(=O)(=O)NCCc1cn(Cc2cccc(F)c2)c2cc(-c3ccncc3)ccc12
Completion: < 500 nM

Prompt: Output measured EC50 for this item: CC(C)(C)Cc1cn(CCNS(=O)(=O)C2CC2)c2ccc(-c3ccc(N)c(F)c3Cl)cc12
Completion: < 500 nM

Prompt: Output measured EC50 for this item: CC(C)(C)Cn1cc(CCNS(=O)(=O)C2CC2)c2ccc(-c3ccc(F)cc3C(F)(F)F)cc21
Completion: < 500 nM

Prompt: Output measured EC50 for this item: COc1ccc2c(CCN(C)S(=O)(=O)N(C)C)cn(CC(C)C)c2c1
Completion: > 3000 nM

Prompt: Output measured EC50 for this item: CN(C)S(=O)(=O)NCCc1cn(CC2CC2)c2cc(-c3ccncc3)ccc12
Completion: < 500 nM

Prompt: Output measured EC50 for this item: Cc1cccc(Cl)c1-c1ccc2c([C@H](NS(=O)(=O)C3CC3)C(F)(F)F)cn(CC(C)(C)C)c2c1
Completion: < 500 nM

Prompt: Output measured EC50 for this item: CC(C)Cn1cc(CCNS(=O)(=O)N(C)C)c2ccc(-c3ccnn3C)cc21
Completion: < 500 nM

Prompt: Output measured EC50 for this item: CC(C)Cn1cc(CCNS(=O)(=O)N(C)C)c2ccc(C3CCN(C(=O)OC(C)(C)C)CC3)cc21
Completion: 500 to 3000 nM

Prompt: Output measured EC50 for this item: CC(C)Cn1cc(CNS(=O)(=O)C2CCCC2)c2ccc(-c3ccncc3)cc21
Completion: < 500 nM

Prompt: Output measured EC50 for this item: O=S(=O)(N[C@@H](c1cn(CC2CCCC2)c2cc(-c3ccccc3C(F)(F)F)c(F)cc12)C(F)(F)F)C1CCC1
Completion: < 500 nM

Prompt: Output measured EC50 for this item: Cc1c(-c2ccncc2)ccc2c(CCNS(=O)(=O)N(C)C)cn(C(=O)C(C)C)c12
Completion: < 500 nM

Prompt: Output measured EC50 for this item: Cc1c(CCNS(=O)(=O)N(C)C)c2ccc(-c3ccncc3)cc2n1CC(C)C [Example 41]
Completion: > 3000 nM

Prompt: Output measured EC50 for this item: Cc1ccccc1-c1ccc2c(CCNS(=O)(=O)N(C)C)cn(CC(C)C)c2c1
Completion: < 500 nM

Prompt: Output measured EC50 for this item: CC(C)Cc1cn(CCN(C)S(=O)(=O)N(C)C)c2ncc(-c3ccncc3)cc12
Completion: < 500 nM

Prompt: Output measured EC50 for this item: CC(C)C(=O)n1cc(C(C)NS(=O)(=O)N(C)C)c2ccc(-c3ccccc3C(F)(F)F)cc21 (centres unmarked)
Completion: < 500 nM

Prompt: Output measured EC50 for this item: CC(C)Cn1cc(CNS(=O)(=O)C(C)C)c2cc(F)c(-c3ccccc3)cc21
Completion: < 500 nM

Prompt: Output measured EC50 for this item: CN(C)S(=O)(=O)NCCc1cn(Cc2cccc([N+](=O)[O-])c2)c2cc(-c3ccncc3)ccc12
Completion: 500 to 3000 nM
